assay: Clearance in cynomolgus monkey at 1 mg/kg, iv; format: ADME, organism-based, Macaca fascicularis; set-up: dose 1 mg/kg, route intravenous; settings: in vivo
METRIC: clearance (mL/min/kg)
Enter your answer as a number in mL/min/kg; do not include the unit.

[ask] Hello, please tell me recorded clearance for this one: O=C(O)CC1CC2(CCN(C(=O)NC3C4CC5CC(C4)CC3C5)CC2)c2c(Br)cccc21 (stereo unspecified)
[reply] 13.8

----------
experiment: Oral bioavailability in mouse at 9.68 mg/kg; format: ADME, organism-based; settings: in vivo
METRIC: bioavailability (%)
Supply the numeric figure in %, leaving out any unit text.

[ask] Give bioavailability for the following compound: O=C(O)CC1CC2(CCN(C(=O)NC3C4CC5CC(C4)CC3C5)CC2)c2c(Br)cccc21 (stereo unspecified)
[reply] 29
